We begin with a simple list: items and their reported IC50.
test system: 817829-284-R-J1-PDC complex spheroid viability; experiment: Anticancer human tumor 817829-284-R-J1-PDC patient-derived colon adenocarcinoma cell line growth inhibition [POLQ]; settings: curve of first compound; second compound 0.316 µM;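 note: spheroids exposed to compounds for 7 days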

Examples with their reported IC50 follow.
Compound: CC1COCCN1c1cc(-c2ccnn2C)c2ccnc(-c3ccn[nH]3)c2n1 (stereo not given) + COC1C(OC(N)=O)C(O)C(Oc2ccc3c(O)c(NC(=O)c4ccc(O)c(CC=C(C)C)c4)c(=O)oc3c2C)OC1(C)C
IC50: < 31.6 nM
//
Compound: O=c1[nH]cc(F)c(=O)[nH]1 + COC1C(OC(N)=O)C(O)C(Oc2ccc3c(O)c(NC(=O)c4ccc(O)c(CC=C(C)C)c4)c(=O)oc3c2C)OC1(C)C
IC50: 3420 nM
//
Compound: O=C(c1cc(Cc2n[nH]c(=O)c3ccccc23)ccc1F)N1CCN(C(=O)C2CC2)CC1 + Nc1ccc(C#CCN(C(=O)Cc2ncc(C(F)(F)F)cc2C(F)(F)F)c2ccc(F)cc2)nn1
IC50: 4010 nM
//
Compound: CC(=O)O[C@H]1C(=O)[C@@]2(C)[C@H]([C@H](OC(=O)c3ccccc3)[C@]3(O)C[C@H](OC(=O)[C@H](O)[C@@H](NC(=O)c4ccccc4)c4ccccc4)C(C)=C1C3(C)C)[C@]1(OC(C)=O)CO[C@@H]1C[C@@H]2O + Cc1cccc(N(C)C(=O)C2C(O)CCN2c2nc(C)cc(C(F)(F)F)c2C#N)c1
IC50: < 9.49 nM
//
Compound: Nc1ccn(C2OC(CO)C(O)C2(F)F)c(=O)n1 (stereo not given) + Nc1ccc(C#CCN(C(=O)Cc2ncc(C(F)(F)F)cc2C(F)(F)F)c2ccc(F)cc2)nn1
IC50: < 31.6 nM

Prompt line: Write IC50 of Nc1ccn(C2OC(CO)C(O)C2(F)F)c(=O)n1 (stereo not given) + Cc1cccc(N(C)C(=O)C2C(O)CCN2c2nc(C)cc(C(F)(F)F)c2C#N)c1 ; system used: 817829-284-R-J1-PDC complex spheroid viability;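 note: spheroids exposed to compounds for 7 days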
Response line: < 31.6 nM

Prompt line: Write IC50 of CC1COCCN1c1cc(C2(O)CC3CCC(C2)O3)c2cnn(-c3ccn[nH]3)c2n1 (stereo not given) + Cc1cccc(N(C)C(=O)C2C(O)CCN2c2nc(C)cc(C(F)(F)F)c2C#N)c1 ; system used: 817829-284-R-J1-PDC complex spheroid viability;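 note: spheroids exposed to compounds for 7 days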
Response line: < 31.6 nM

Prompt line: Write IC50 of COc1cccc(OCCCN)c1-c1cc(Nc2cnc(C#N)cn2)n[nH]1 + Nc1ccc(C#CCN(C(=O)Cc2ncc(C(F)(F)F)cc2C(F)(F)F)c2ccc(F)cc2)nn1 ; system used: 817829-284-R-J1-PDC complex spheroid viability;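 note: spheroids exposed to compounds for 7 days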
Response line: 5.7 nM

Prompt line: Write IC50 of COc1cccc2c1C(=O)c1c(O)c3c(c(O)c1C2=O)CC(O)(C(=O)CO)CC3OC1CC(N)C(O)C(C)O1 (stereo not given) + COC1C(OC(N)=O)C(O)C(Oc2ccc3c(O)c(NC(=O)c4ccc(O)c(CC=C(C)C)c4)c(=O)oc3c2C)OC1(C)C ; system used: 817829-284-R-J1-PDC complex spheroid viability;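 note: spheroids exposed to compounds for 7 days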
Response line: < 31.6 nM

Prompt line: Write IC50 of C#Cc1c(F)ccc2cc(O)cc(-c3ncc4c(N5CC6CCC(C5)N6)nc(OCC56CCCN5CC(F)C6)nc4c3F)c12 (stereo not given) + COC1C(OC(N)=O)C(O)C(Oc2ccc3c(O)c(NC(=O)c4ccc(O)c(CC=C(C)C)c4)c(=O)oc3c2C)OC1(C)C ; system used: 817829-284-R-J1-PDC complex spheroid viability;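 note: spheroids exposed to compounds for 7 days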
Response line: > 10000 nM
